assay: soluble on expression in E. coli; label from the status in PepcDB or PDB records

| seq | soluble on expression in E. coli |
| --- | --- |
| MAGDPNSMKFMSGKFCVLCGKQNVDLIDSLCVDCYVKSKKLIETPKRVTGKYCKICGAQWIRGKWIRTSATSLASVVEDIIARELGSKMRIDKNVDEFAFDIKSIWKDPSGNSFATIEFRGKVRGKSFSQEAVISLEMERELCDSCFRKKTRYYEAIVQLRSKGKIGVDDKKRAFFESFFSTSIVDNISDVIEGREGVDYYFMSKSVARKLVSMISSIVDVEVNESYQNEKMKNGKREAKLVISLRILEHHHHHH | not soluble |
| MELAKFIGLTTFQDILEDCFALLVYERPEESNVGYFLEETQREVVADTVNAAILSTKPKGKNQSHSHLETLLRQLTACCLELRSLNDGQGEAFSLNRLLRTNNWKRTKKTT | soluble |
| MSWQTYVDEHLMCDIDGQGEELAASAIVGHDGSVWAQSSSFPQFKPQEITGIMKDFEEPGHLAPTGLHLGGIKYMVIQGEAGAVIRGKKGSGGITIKKTGQALVFGIYEEPVTPGQCNMVVERLGDYLIDQGL | soluble |
| MLDKLDAALRFQQEALNLRAQRQEVLAANIANADTPGYQARDIDFASELKKVMQRGRDATSVVALTMTSTQHIPAQALTPPTAELQYRIPDQPSLDGNTVDMDRERTQFADNSLQYQMSLSALSGQIKGMMNVLQSGN | not soluble |
| MEINEKLLRQIIEDVLSEMKGSDKPVSFNAPAASAAPQATPPAGDGFLTEVGEARQGTQQDEVIIAVGPAFGLAQTVNIVGIPHKSILREVIAGIEEEGIKARVIRCFKSSDVAFVAVEGNRLSGSGISIGIQSKGTTVIHQQGLPPLSNLELFPQAPLLTLETYRQIGKNAARYAKRESPQPVPTLNDQMARPKYQAKSAILHIKETKYVVTGKNPQELRVAL | soluble |
| MKKLINKKETFLTDMLEGLLIAHPELDLIANTVIVKKAKKEHGVAIVSGGGSGHEPAHAGFVAEGMLDAAVCGEVFTSPTPDKILEAIKAVDTGDGVLLVVKNYAGDVMNFEMAQELAEMEGINVQTVIVRDDIAVTNEVQRRGVAGTVFVHKLAGYLAEKGYSLTEIKSRVEALLPEIKSIGMAIEPPLVPTTGKYGFDIEDDKMEIGIGIHGEKGIHREEVKDIDHIVGTLLDELYKEVTANDVILMVNGMGGTPLSELNIVTKYIQQNLAARTVNVAKWFVGDYMTSLDMQGFSITIVPNKPEYLEAFLAPTTSQYFKLEHHHHHH | soluble |
| MAHHHHHHMVSNVADVRQINLTDSSNFLLMACDGLWDVVENEEATQFVRDFLSYTPDVGSSPEATKRALNNCCQKLAEFAVDRGSTDNVSVMLLFFHDVADVVAGFDKPVGAVVSPPASQVLSPRLTGPSRGIPFGSSMLDGGLHTSSGTSGTRRPSFGSVSSLHGRGRSIW | not soluble |
| GMMNDYLNFLDGRVSVRRFDPDAVLPNDLIKDMLEHASYAPSGNNFQPWRVVVVKNKNKQEDLKKLAALQPQVATASAVFLLFGDENAYDLTWWQEFHVQKGIITKDEAAARAERIRQYFDLHPEDKETQGLRLDVGLFAMNLMQVVRVYGYDSVPMRGVDFDAIKTYLDMPNGWEPILMLPVGKALQAGNPHVRKSVAEFAEIIE | soluble |
| MSLLYTTPRLNISAFLFMKQQLSFLFLLSGLLAGCSSTPNPNLEQINQFTGGKTIGDATSFYWYTESFQKPSSASDYVTSGDYGSYQTSYRWEEGQVREIRREGEHLDGKKLVPFRVHIRFSKEGEAVYQQYRLGGKVLPMNEEQLAHYVLQAKAVAEATKEQDKQGLELIQGYWNGKTFETCQGVEYQRVEFNQSLPSFVFNRLASIESYVAFLGKIRNGKVHIDELLLLDDAGHDCVKEPELLDEGHHHHHH | soluble |
| EIHHRIKNNLQVICSLLSLEAERFSDEKMLETLKESQNRVASMALIHEELYKGDKNDTLDFAAYLRKLTADLFSSYNLGNDNISLKMDL | not soluble |
| MKFLNVLIVVEDIEKSKKFYYDVLGLKVICDFGENVVLEGNISLQEKKLWLEFINKSDSEVKFNGNDAELYFEEDNFDTFVERLSTMKDIDYVHLAIEHRWGQRAIRFYDLDGHIIEVGETMSSVCRRFLDSGLSIDEVAKRMDVTVEYIESVLELEHHHHHH | soluble |
| GMTQHITRMRREIDEIPEAVQRLLDHGAQDVARVAAVLRLRDPSFVATVARGSSDHVCTYLSYAAELLLGLPVASLGPSVASVYDARLRLDRALCLAVSQSGKSPDIVAMTRNAGRDGALCVALTNDAASPLAGVSAHTIDIHAGPELSVAATKTFVTSAVAGLMLLADWAEDDGLRAALGNLPETLAAASRIDWPEMRVAIGARPSLFTLGRGTSLAVSNEAALKFKETCQLHAESYSSAEVLHGPVSIVEEGFPVLGFAAGDAAEAPLAEIADQIAAKGATVFATTGRVTRARVLEHVRSGHALTDPLSLIVSFYSMVEAFASERGIDPDAPRHLNKVTETV | soluble |
| MGSDKIHHHHHHMTTGKLSHAHLCGWLRFKHLTLLTTLAESRNMHATARVMHLSQPAASKMLRDLEVYFGFALFERLPRAMQPTELGEQVIRHAWILLNDMERLVDDINDLREGGYGQLLIGAIAAAAPEILPAAIARLKQARPRLSVSLQEQTSDRLLLELEHKRLDLVIGRLTHVSQHNLFDFEPLLDEPLRVVVRRDHPLTRRGEAPSLDELSHWPWILHPLSSPMRGVFESALAEEGIATPANVVETTSIQATLQLLQSSDMLAVLPRSVMRRPLAGGQYVVLERVIGKPLDYYGIITRRQEPLSPAVEELVVHLRRLAAEADGR | not soluble |

* * *

assay: soluble on expression in E. coli; label from the status in PepcDB or PDB records
quantity measured: soluble on expression in E. coli

| seq | observed result |
| --- | --- |
| MGSDKIHHHHHHMRDFLKSAFGRSKPKQLRILPQDVTIEIGQGQTLLEAALANGIAYPHDCTVGTCASCKTRLKQGRVREATPFGYTLSKDELDAGYILACQAFPKDELTVVEIDSSAGDLMPAEKYTANIIATEPLTHDILRVTVQTDRAVSYAAGQYANLRKAGGGRARSYSFANAPQRKGRTLLEFYIRKVPGGEFTESLFGGELKGVSLEMEAPLGTFHLRAGDSHMVCIAGGSGLAPLVSILEHARGNRIKRDCTLLFGARTQADLYQLDAIGSIASNWQGDFRFIPVLSDEPLDSDWKGARGLVTDHIAPGFCEGGEGYLCGPPLMIDAAIASLAKHGIPLEKVFYDKFTDSRDR | not soluble |
| MNQEKLDLRKSAADDTHSGAAFAFQALTPDLILDAIESLGVYPETGLLALNSYENRVYQFRSDEGQRYVVKFYRPDRWSDAQIQEEHDFALALAEQEIPMAVPTAVQGHTLHHFQGFRFALFPSIGGRAFEVDNLEQLEFVGRFIGRMHQYGAQSVFQAREPLNPQILGDEPLAWLKQSELVPTSLRVAFFTVVEQVLAKVNTLWAQQRFKPIRLHGDLHPGNILWTPDGPGFVDLDDARMGPAIQDLWMMLTGDRAQQQLQLEVLLEAYEEFCEFDTRQLALIEPLRALRMVHYNAWIGRRWQDPAFPMHFPWFGDEKYWEQQILAFKEQLAALDEPPLSLIPY | not soluble |
| IDFRTNKSKDAVIVVELASPAAIVDVKRVQEGLSIDLMNTSVKDEQLYLLDVKDFATVVESVEVFRDTSTTRLVAYIDEEYTHDYRLTGRYLEITVSKLKPNEKV | not soluble |

* * *

assay: soluble on expression in E. coli; label from the status in PepcDB or PDB records
quantity measured: soluble on expression in E. coli

| seq | observed result |
| --- | --- |
| MSLRPFATKAEADAAVADIRARGRLIVGLDIGSNLFSFRDPITGEITGFDVDIAGEVARDIFGVPSHVEYRILSAAERVTALQKSQVDIVVKTMSITCERRKLVNFSTVYLDANQRILAPRDSPITKVSDLSGKRVCVARGTTSLRRIREIAPPPVIVSVVNWADCLVALQQREIDAVSTDDTILAGLVEEDPYLHIVGPDMADQPYGVGINLDNTGLVRFVNGTLERIRNDGTWNTLYRKWLTVLGEGHHHHHH | soluble |
| SKAAIYHAFSHKEAKDHDVQELGSQRAEAFVRAFLKQSIPHMSQEDCESHLQRKAVILEYFTRLKPRPRPKKKSKGLSAKQRRDMRLFDIKPEQQRYSLFLPLHELWKQYIRDLCNGLKPDTQPQMIQAKLLKADLHGAIISVTKSKCPSYVGVTGILLQETKHVFKIITREDHLKVIPKLNCVFTIEIDDFISYIYGSKFQLRASERSAKKFKAKGSIDL | soluble |
| MEASMERFDNAPETALAWHRQGLGAALATVVETWGSAPRRVGAQLVIGGDGRIEGSVSGGCVEGAVIVEALEALEEGQARLLEFGVSDEDAFAVGLACGGTIRVLVEPVGQVLSEVMLAELVAARASRQALAYVVDTARGTRALVRDAYPERMRMDRSGFDEDGRTFVAVHNPPLRLIVVGAVHIAQALVPMARIAGYDPVVIDPREAFASDARFPGETILHDWPDEAVAKLGLDARTALVLLTHDPKLDDPALEAALAADVFYIGALGSTRTHAKRVARMQEAGFTEAQIGRIHGPVGLDIGAAGPAEIAVAILAQMTAVLRGRA | soluble |
| MSLTFHEIRFPEDISYGSTGGPEFSTSIVQTNNGSEYRKVNLSYSRNKYNIMYNMKSEDQLLKLINFFYVHKGKAIGFRFKDWSDYKAKKEHIGIGNDKQKKFQIIKTYSIDQHSYIRKITKPVINTVKIYYDDIEKVDGFSVNFSNGQIEFNTPPHNGVTIYADYEFDVPVRFDSDYLPYSMDNYNEHNCNNIALIEIKTEGHHHHHH | soluble |
| MSLYLCEEHFKEYFERKVARTIEKYKLASKDERILVAVSGGKDSAVTAYVLKKLGYKIECLHLNLGIGEYSEKSEIYAKKQCEFIGAPLNIIRVKELLGYGIGEVRTSRPTCSYCGLTKRYIMNKFAYDNGFDAVATGHNLDDEASFLMNNLLHWNTEYLAKGGPLLPGEGKFVKKIKPLYELTEREVVAYAIAVGLEYIVEECPYARGATTLDMKEVLNELEEKRPGTKFNFVRGFLRKKKLFEPEVKGKDLKECKICGMPASGEICSFCKFWKLGKPLTFKIKEGHHHHHH | soluble |
